Form field: pest or weed control at 200 ppm (one value per entry).
test system: Rhynchosporium commune; assay: Leaf blotch of barley, whole-plant fungicidal activity (RHYNSE); type: in vivo; settings: 24 h, 1DP (1 day protectant), read-out: % Disease Control Rating RHYNSE

- sample smiles: "CCN(C)/C=N/c1cc(C)c(C(=O)Cc2ccc(C)cc2)cc1C"
  result: "> 85%"
- sample smiles: "Cc1cc(C(=O)CC2CCCCC2)c(C)cc1/N=C(\\S)N(C)C1CC1"
  result: "< 20%"
- sample smiles: "CCN(C)/C=N/c1cc(C)c(C(=O)Cc2ccc(C(C)(C)C)cc2)cc1C"
  result: "> 85%"

Now examine the next entry.
Result for `Cc1cc(C(=O)CC2CCCCC2)c(C)cc1/N=C/N(C)C1CC1` , tested on Rhynchosporium commune, pest or weed control at 200 ppm: < 20%
